Value source: the RNAGym collection of RNA variant scans (doi:10.1073/pnas.2313332121)

B1: TPR 5TU (parent)
chain: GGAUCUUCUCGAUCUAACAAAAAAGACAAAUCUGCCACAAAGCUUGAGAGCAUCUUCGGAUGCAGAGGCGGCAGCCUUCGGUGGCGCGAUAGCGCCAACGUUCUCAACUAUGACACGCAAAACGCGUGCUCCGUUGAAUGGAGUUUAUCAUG

- Variants of: B1
- method_description: polymerase ribozyme fitness, log enrichment relative to wild type (log ratio); higher = more active; in vitro selection for triplet polymerase activity
This sample holds only a part of the variants without activity.
Record criterion met whenever polymerase ribozyme fitness (log ratio) is at -3 or higher; record criterion not met when lower.

                    mutation_descriptor        class_label
 0     A20U A26C G84U C103G A106C C108G  criterion not met
 1                      U78C G84A G136U  criterion not met
 2                           G86A C114A  criterion not met
 3                C76A A91C G128C G143A  criterion not met
 4                C51U C95A U104C C116G      criterion met
 5                            G46A G59U      criterion met
 6                       A12U A39G C95U      criterion met
 7     C35G C95G A97C C114G G124A A138G  criterion not met
 8                       U13C C54U C87U      criterion met
 9                     U78A G133A U139G  criterion not met
10                             U7A G58C  criterion not met
11  C14U A20C A39G A52G U56A C96A A121U  criterion not met
12                  A16C C32G U56G C63G  criterion not met
13                  C18A A19C A40C C85U      criterion met
14    G83U A89G C103A C108G U134C A142C  criterion not met
15                       C51A C96U A97U      criterion met
16                G88A G92A C132G U148A  criterion not met
17        C14U A30U U53G G58U G65C G74A  criterion not met
18      A49G C63A G71U G83U A122U A150U  criterion not met
19                            C18G U55A      criterion met
20                     C57G G124U U148G  criterion not met
